system: A549 cells; assay: MTS assay, proliferation of A549 cells; type: cell-based, human; details: Homo sapiens, A549, 48 h, read-out: IC50, anticancer activity against lung cancer
pIC50: −log10 of the molar value.

Compound: CC1=C2C[C@H]3[C@@H](CC=C4C[C@@H](O)CC[C@@]43C)[C@@H]2CC[C@]12O[C@@H]1C[C@H](C)CN[C@H]1[C@H]2C
pIC50: 4.31

Compound: CC1=C2C[C@H]3[C@@H](CC=C4C[C@@H](O)CC[C@@]43C)[C@@H]2CC[C@]12O[C@@H]1C[C@H](C)CN(Cc3cn([C@@H]4OC(CO)[C@@H](O[C@@H]5OC(CO)[C@H](O)C(O)C5O)C(O)C4O)nn3)[C@H]1[C@H]2C (some centres unmarked)
pIC50: 3.74
